- Target entity: DLG4_3, P78352
- Sequence (P78352 306-403): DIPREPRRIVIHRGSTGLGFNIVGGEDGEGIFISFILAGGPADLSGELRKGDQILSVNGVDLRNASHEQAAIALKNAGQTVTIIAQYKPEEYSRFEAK
- Assay: holdup assay
- Design: key: below the threshold = too weak to quantify, mostly under pKd 3.1 to 4
- Recorded conditions: plain residues with an end cap or a label only (N-terminal biotin on a linker: ahx)
Readout: pKd

INSERT INTO results (binder, readout_value) VALUES
  ('TESNLQTSSC [CGN, Q9P2M7]', 'below the threshold'),
  ('TQKFRASTAL [FRMPD1, Q5SYB0]', 3.78),
  ('APSRKLNTEI [TIAM1, Q13009]', 'below the threshold'),
  ('QPRTWLQSPV [RTKN, Q9BST9]', 4.35),
  ('HTHSYIETHV [CNKSR2, Q8WXI2]', 3.74);

// next item, pKd requested
QNTDDVQTSF [ACE2, Q9BYF1] has a reported pKd of below the threshold
